B1: Lysozyme C, P61626 (parent)
chain: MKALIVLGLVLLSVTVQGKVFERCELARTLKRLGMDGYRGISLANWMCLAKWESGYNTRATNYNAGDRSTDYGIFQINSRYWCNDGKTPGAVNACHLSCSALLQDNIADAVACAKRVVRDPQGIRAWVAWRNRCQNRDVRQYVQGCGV

Variants of: B1
Settings: Homo sapiens; pH 2.7; Thermal; DSC; glycine 0.05 M; reversible: yes; structure 1LZ1; whole UniProt chain shown
Documented change of melting temperature, mutant - wild type (higher = more stable) across a set of variants
Kindly answer with a numeric value in °C, unit omitted.

Here are 10 variants together with their reported answers.
V139A : -9.3
V143A : -7
I41V : -1.6
V128A : 0.3
V20A : -7.9
I74V : -6.3
V148A : -4.8
I77V : -4.4
V117A : -4.4
V118A : -2.6

Looking for the measured change of melting temperature, mutant - wild type (higher = more stable) of V92A , can you help?
-1.9

Looking for the measured change of melting temperature, mutant - wild type (higher = more stable) of I107V , can you help?
-2.7
